// data source = ChEMBL document CHEMBL1201862

measured.target: Cytochrome P450 2C9 (Homo sapiens)
Sequence (P11712 whole entry): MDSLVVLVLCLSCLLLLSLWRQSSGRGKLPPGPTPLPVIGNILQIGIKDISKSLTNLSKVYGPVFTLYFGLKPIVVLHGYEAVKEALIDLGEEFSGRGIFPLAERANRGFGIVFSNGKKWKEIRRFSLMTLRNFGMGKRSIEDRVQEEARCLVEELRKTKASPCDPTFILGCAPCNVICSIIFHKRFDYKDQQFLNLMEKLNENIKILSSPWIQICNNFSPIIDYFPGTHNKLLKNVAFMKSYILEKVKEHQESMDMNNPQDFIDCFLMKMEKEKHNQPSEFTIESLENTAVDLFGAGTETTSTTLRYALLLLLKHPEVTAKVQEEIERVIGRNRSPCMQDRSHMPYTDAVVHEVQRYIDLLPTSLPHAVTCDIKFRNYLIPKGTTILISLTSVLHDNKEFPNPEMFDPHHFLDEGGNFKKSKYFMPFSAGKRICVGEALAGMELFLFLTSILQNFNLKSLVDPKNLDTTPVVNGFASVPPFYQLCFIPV
experimental.endpoint: AC50

COc1cccc(Nc2ncc3nc(-c4cn(C)c5ccccc45)c(=O)n(C[C@H]4CCCO4)c3n2)c1 inconclusive
O=C(c1cc(C(F)(F)F)cc(C(F)(F)F)c1)N1CCC2(CC1)CCN(c1ncccn1)CC2 inconclusive
Cc1ccccc1C(=O)NC(=S)NCC(=O)c1ccccc1 inconclusive

====

Reported AC50 is given for each of the following compounds.
measured.target: Paired box protein Pax-8 (Homo sapiens)
Sequence (Q06710 whole entry): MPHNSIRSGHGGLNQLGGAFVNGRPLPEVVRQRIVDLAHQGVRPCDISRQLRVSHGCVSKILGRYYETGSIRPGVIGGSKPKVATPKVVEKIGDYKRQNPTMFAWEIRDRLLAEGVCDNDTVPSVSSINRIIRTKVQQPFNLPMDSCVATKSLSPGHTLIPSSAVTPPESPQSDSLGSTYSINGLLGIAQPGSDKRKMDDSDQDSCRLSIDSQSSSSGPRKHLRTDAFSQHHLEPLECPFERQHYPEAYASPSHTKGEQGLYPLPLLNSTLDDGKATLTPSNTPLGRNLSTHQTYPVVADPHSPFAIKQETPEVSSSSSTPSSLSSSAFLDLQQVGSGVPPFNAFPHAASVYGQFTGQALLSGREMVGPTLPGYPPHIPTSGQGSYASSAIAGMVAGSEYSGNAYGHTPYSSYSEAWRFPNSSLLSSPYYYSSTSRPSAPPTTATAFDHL
assay.remarks: PAX8 transcriptional activity inhibition in RMG-I – RMG-I cells, luciferase, cherry-pick, dose response (AID 687027);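 note: luciferase reporter driven by Pax8 target thyroperoxidase promoter measured by SteadyGlo luminescence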
Type: functional, cell-based
Calls of active or inactive are those of the source.

Guide cases for AC50, answers given:
compound	value.reported
Cc1ccc(S(=O)(=O)Nc2ccc3c(c2)C(=O)N([C@H](C)CO)C[C@H](C)[C@@H](CN(C)Cc2ccc(C(F)(F)F)cc2)OCCCC[C@H](C)O3)cc1	4620 nM (active)
COc1cccc2c1C(=O)c1c(O)c3c(c(O)c1C2=O)CC(O)(C(C)=O)CC3OC1CC(N(C)C)C(O)C(C)O1 (centres undefined)	1520 nM (active)
COc1ccc(COC(=O)c2cc([N+](=O)[O-])ccc2N2CCOCC2)cc1F	< 260 nM (active)
CC(C)N1CCc2c(sc(NC(=O)c3ccc([N+](=O)[O-])o3)c2C(N)=O)C1	1160 nM (active)
COc1ccc(OCc2cccc(C(=O)Nn3cc([N+](=O)[O-])cn3)c2)cc1	1130 nM (active)
N#Cc1nccnc1S(=O)(=O)c1cccs1	4590 nM (active)
Cn1nnnc1Sc1ncnc2scc(-c3cccc(Br)c3)c12	2750 nM (active)
C[C@H](CO)N1C[C@H](C)[C@@H](CN(C)Cc2ccc(C(F)(F)F)cc2)OCCCC[C@H](C)Oc2ccc(NS(=O)(=O)c3ccc(F)cc3)cc2C1=O	6280 nM (active)

Attention now shifts to the item below.
Note to self: AC50 recorded for CCC(c1nnnn1Cc1ccccc1)N1CCC(n2c(O)nc3ccccc32)CC1 (centres undefined) was 3800 nM (active)

====

measured.target: Cytochrome P450 2C19 (Homo sapiens)
Sequence (P33261 whole entry): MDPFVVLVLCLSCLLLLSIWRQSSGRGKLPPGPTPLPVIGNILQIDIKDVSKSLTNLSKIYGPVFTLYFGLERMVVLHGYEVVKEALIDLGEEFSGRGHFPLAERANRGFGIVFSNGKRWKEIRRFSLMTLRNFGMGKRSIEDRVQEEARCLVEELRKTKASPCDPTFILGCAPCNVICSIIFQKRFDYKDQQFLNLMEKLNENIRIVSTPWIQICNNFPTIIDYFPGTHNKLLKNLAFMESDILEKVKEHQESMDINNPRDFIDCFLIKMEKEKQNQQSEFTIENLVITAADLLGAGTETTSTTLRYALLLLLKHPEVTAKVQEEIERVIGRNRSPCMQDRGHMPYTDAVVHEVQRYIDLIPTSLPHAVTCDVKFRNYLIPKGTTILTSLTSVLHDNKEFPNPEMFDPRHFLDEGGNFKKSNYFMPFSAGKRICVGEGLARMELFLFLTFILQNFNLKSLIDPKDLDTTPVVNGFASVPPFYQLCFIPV
assay.remarks: Cytochrome panel assay with activity outcomes. Panel member name: p450-cyp2c19 Compounds with AC50 equal or less than 10 uM are considered active
Type: functional
assay.context: read-out: AC50
Reported AC50 is given for each of the following compounds.

Note to self: AC50 recorded for "CC(C)C[C@@H](N)C(=O)Nc1ccc2ccccc2c1" was 2.51 µM (inconclusive)

====

assay.remarks: blockers of HIV-1 envelope-mediated cell-cell fusion – cherry-pick, dose response (AID 652057)
Type: functional, cell-based
Activity calls are given as the source filed them.
Reported AC50 is given for each of the following compounds.

Guide cases for AC50, answers given:
compound	AC50
C[C@H](CO)N1C[C@H](C)[C@H](CN(C)S(=O)(=O)c2ccccc2)Oc2ccc(NS(=O)(=O)c3ccccc3)cc2CC1=O	8480 nM (active)
Cc1ccc(S(=O)(=O)N(C)C[C@@H]2Oc3ccc(NC(=O)Nc4ccc5c(c4)OCO5)cc3C(=O)N([C@H](C)CO)C[C@@H]2C)cc1	2480 nM (active)
CCCCCCCCCCCCCCCC(=O)OCC1OC(n2ccc(N)nc2=O)C(O)C1O (stereo not given)	557 nM (active)

Note to self: AC50 recorded for "CCCCCCc1nc2ccccc2c(=O)n1NC(=O)c1c(O)c2c(n(CC(C)C)c1=O)CCCC2" was 22800 nM (active)

Note to self: AC50 recorded for "CC[C@@]1(C(=O)OC)N[C@H](CN(C)C(=O)COc2ccccc2)[C@@H]2C(=O)N(Cc3ccccc3)C(=O)[C@@H]21" was 2200 nM (active)

====

Entries below carry reported AC50 on Cytochrome P450 2D6 (Homo sapiens, UniProt P10635).
Sequence (P10635 whole entry): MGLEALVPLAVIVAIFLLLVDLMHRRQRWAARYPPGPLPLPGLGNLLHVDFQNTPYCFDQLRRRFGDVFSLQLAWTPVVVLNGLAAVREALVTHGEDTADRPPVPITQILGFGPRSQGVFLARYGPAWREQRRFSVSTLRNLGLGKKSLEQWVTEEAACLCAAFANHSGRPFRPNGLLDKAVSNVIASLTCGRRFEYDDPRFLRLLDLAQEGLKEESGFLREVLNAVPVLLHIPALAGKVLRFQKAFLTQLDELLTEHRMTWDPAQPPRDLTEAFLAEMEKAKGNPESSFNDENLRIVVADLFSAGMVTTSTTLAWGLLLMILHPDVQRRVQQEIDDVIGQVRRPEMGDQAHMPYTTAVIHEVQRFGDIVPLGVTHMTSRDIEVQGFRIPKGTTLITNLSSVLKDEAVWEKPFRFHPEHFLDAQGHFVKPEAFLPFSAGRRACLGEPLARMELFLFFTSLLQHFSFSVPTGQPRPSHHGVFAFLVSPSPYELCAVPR

COC(=O)c1ccccc1NS(=O)(=O)c1ccc2c3c(cccc13)C(=O)N2 28.2 µM (inconclusive)
NCCCCNS(=O)(=O)c1ccc2c(Cl)cccc2c1 31.6 µM (inconclusive)
CNC(=O)c1sc(SC)cc1-c1ccc(Cl)cc1 25.1 µM (inconclusive)
COc1ccc(/C=N/NC(=O)c2cc[nH]n2)cc1COc1ccc(Cl)cc1 25.1 µM (inconclusive)
O=[N+]([O-])c1cccc(-c2nc(-c3ccccc3)c(-c3cccs3)[nH]2)c1 4.47 µM (inconclusive)

Tested on Cytochrome P450 2D6 (Homo sapiens, UniProt P10635): "Cn1nc(C(F)(F)F)c(C(=O)Nc2ccc(F)cc2F)c1Sc1cccc(C(F)(F)F)c1" . Observed AC50: 20 µM (inconclusive)

Tested on Cytochrome P450 2D6 (Homo sapiens, UniProt P10635): "Oc1ccc(Cc2cc(Cl)cc(Cl)c2O)cc1Cl" . Observed AC50: 7.94 µM (inconclusive)

Tested on Cytochrome P450 2D6 (Homo sapiens, UniProt P10635): "CSc1ccc(C#N)cc1NC(=O)c1cccc(Cl)c1" . Observed AC50: 10 µM (inconclusive)

====

measured.target: DNA dC->dU-editing enzyme APOBEC-3G (Homo sapiens)
Sequence (Q9HC16 whole entry): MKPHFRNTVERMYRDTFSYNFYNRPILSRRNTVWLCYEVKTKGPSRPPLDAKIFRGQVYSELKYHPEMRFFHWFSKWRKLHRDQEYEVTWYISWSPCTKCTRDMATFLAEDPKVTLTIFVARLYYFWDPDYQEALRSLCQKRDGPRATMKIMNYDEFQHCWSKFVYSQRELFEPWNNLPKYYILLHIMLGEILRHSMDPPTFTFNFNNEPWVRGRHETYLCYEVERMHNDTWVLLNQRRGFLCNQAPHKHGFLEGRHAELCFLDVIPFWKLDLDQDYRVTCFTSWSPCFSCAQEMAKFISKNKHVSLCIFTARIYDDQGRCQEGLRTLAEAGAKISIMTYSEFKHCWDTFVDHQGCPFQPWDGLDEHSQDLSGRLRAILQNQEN
assay.remarks: Dose Response confirmation of small molecule APOBEC3G DNA Deaminase Inhibitors via a fluorescence-based single-stranded DNA deaminase assay. [Related pubchem assays (depositor defined):AID493012, AID493028]
Format: functional
The source made the active and inactive calls.
Reported IC50 is given for each of the following compounds.

CC(=O)Nc1ccc(S(=O)(=O)NNc2cccc(C)c2)cc1 35.9 µM (active)
O=C(CN(CC(=O)N1CCOCC1)S(=O)(=O)c1ccc(Br)s1)N1CCOCC1 74.3 µM (active)
COc1cccc(C(=O)NCc2nnc(S)n2-c2cccc(C)c2)c1 12.8 µM (active)
Cc1ccccc1-n1sc2cc(F)ccc2c1=O 9.02 µM (active)
Sc1nc(-c2ccccc2)cn1/N=C/c1cccnc1 4.77 µM (active)

Note to self: IC50 recorded for "COc1ccc(-n2c(SCC(=O)C(C)(C)C)nc3c(sc(=S)n3-c3ccccc3)c2=O)c(OC)c1" was 66.5 µM (active)

====

Reported EC50 is given for each of the following compounds.
assay.remarks: alpha-synuclein stem-loop luciferase translation blockers – H4 neuroglioma cells, luminescence, confirmation (AID 1988)
Format: functional, cell-based
Calls of active or inactive are those of the source.

Guide cases for EC50, answers given:
compound	EC50
Cc1ccc(N(CC(=O)NCCSc2nc3ccccc3s2)S(=O)(=O)c2ccccc2)c(C)c1	14.8 µM (active)
Cc1cccc(/C=C/C(=O)c2cc(Br)ccc(=O)c2O)c1	9.67 µM (active)
Cc1cc(OCCCCn2ccnc2)cc(C)c1Cl	16 µM (active)
COc1nc(-c2ccccc2)cc(-c2ccc3c(c2)OCO3)c1C#N	3.63 µM (active)
CCOc1cc(-c2cc(-c3ccc(C)cc3)nc(N)c2C#N)ccc1O	10.7 µM (active)
O=C(C1=C(O)C(=O)N(c2nccs2)C1c1ccccc1)c1ccc2c(c1)OCCO2 (configuration not stated)	7.17 µM (active)

Attention now shifts to the item below.
Note to self: EC50 recorded for "O=C(/C=C\Nc1cccc(F)c1)c1ccc2c(c1)OCO2" was 7.2 µM (active)

====

measured.target: Peroxisome proliferator-activated receptor gamma/Nuclear receptor coactivator 1 (Homo sapiens)
Type: functional
Reported EC50 is given for each of the following molecules.

Guide cases for EC50, answers given:
molecule	experimental.endpoint	value.reported
CCCCC(CC)c1nnc(NC(=O)c2cccs2)s1 (configuration not stated)	EC50	> 79.4 µM (not active)
CN1CCS/C1=C\C=C1/SC(=S)N(CC(=O)O)C1=O	EC50	89.8 µM (not active)
CCN1CCCC1CNC(=O)c1cc2c(-c3ccc(Cl)cc3)nn(C)c2s1 (configuration not stated)	EC50	> 79.4 µM (not active)
Cc1ccc(NS(=O)(=O)c2cccs2)cc1S(=O)(=O)N1CCCCCC1	EC50	> 79.4 µM (not active)
Cc1ccc(S(=O)(=O)NC(=O)COc2ccccc2)cc1	EC50	> 79.4 µM (not active)
CCN(CC)CCn1c(NC(=O)c2ccc(Cl)cc2)nc2ccccc21	EC50	> 79.4 µM (not active)

Attention now shifts to the item below.
Note to self: EC50 recorded for "COC(=O)c1cnn(-c2nc3c(C)cccc3s2)c1C" was 54.5 µM (not active)

====

Reported EC50 is given for each of the following compounds.
measured.target: Peroxisome proliferator-activated receptor gamma/Nuclear receptor coactivator 1 (Homo sapiens, UniProt P37231)
Sequence (P37231 whole entry): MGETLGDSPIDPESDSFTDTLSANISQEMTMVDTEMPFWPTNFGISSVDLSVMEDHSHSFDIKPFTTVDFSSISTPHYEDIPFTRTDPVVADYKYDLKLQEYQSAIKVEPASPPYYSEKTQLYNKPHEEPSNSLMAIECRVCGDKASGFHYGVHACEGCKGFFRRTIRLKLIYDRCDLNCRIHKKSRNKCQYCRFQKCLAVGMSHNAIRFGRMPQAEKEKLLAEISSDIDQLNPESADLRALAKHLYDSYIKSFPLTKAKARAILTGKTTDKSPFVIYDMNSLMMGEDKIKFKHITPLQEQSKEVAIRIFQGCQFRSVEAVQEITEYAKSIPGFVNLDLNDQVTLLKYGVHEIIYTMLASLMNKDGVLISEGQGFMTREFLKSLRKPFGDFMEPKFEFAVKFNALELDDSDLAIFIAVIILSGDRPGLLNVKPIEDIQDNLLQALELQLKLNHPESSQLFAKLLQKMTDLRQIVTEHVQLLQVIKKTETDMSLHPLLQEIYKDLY
Sequence (Q15788 whole entry, further chain): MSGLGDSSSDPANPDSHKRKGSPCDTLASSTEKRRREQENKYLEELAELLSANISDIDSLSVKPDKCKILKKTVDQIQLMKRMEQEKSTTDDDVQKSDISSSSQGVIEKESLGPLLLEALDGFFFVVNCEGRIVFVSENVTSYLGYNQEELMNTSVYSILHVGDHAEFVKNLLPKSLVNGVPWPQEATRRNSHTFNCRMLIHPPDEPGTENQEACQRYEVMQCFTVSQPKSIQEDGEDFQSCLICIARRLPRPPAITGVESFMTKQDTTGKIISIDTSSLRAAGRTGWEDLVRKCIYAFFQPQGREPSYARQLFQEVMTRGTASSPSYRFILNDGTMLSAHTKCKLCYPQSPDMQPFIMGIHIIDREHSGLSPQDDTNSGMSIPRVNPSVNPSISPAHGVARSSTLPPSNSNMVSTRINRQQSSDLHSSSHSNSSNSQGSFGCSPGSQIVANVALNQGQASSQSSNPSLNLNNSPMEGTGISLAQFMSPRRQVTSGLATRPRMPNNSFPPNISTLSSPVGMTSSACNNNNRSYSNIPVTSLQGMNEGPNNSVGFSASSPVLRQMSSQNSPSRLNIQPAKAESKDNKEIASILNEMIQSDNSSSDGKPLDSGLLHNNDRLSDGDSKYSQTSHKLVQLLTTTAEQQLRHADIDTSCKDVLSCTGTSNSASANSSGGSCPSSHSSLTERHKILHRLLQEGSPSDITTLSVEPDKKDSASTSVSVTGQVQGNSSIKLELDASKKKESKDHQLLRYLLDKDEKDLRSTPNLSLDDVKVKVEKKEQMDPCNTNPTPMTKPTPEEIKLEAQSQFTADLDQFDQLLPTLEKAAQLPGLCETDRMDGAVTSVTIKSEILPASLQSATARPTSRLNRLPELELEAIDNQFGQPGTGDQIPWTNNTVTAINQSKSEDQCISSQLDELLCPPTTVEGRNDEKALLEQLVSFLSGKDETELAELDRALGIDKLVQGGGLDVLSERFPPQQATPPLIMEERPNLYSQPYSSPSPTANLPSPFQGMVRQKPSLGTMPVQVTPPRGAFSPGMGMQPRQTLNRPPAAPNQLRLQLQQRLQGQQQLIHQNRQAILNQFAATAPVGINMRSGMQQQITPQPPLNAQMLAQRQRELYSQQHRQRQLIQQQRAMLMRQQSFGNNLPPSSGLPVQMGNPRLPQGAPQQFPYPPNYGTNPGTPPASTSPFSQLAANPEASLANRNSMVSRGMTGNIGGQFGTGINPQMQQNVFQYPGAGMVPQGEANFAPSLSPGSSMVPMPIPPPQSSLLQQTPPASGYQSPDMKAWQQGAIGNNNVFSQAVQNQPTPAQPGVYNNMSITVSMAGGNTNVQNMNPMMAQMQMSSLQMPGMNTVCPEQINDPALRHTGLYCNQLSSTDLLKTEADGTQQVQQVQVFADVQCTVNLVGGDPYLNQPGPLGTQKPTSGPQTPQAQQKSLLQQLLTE
assay.remarks: TR-FRET dose response biochemical High Throughput Screening assay for agonists of the steroid receptor coactivator 1 (SRC-1) recruitment by the peroxisome proliferator-activated receptor gamma (PPAR gamma): non-selective agonists. [Related pubchem assays (depositor defined):AID1300, AID1808, AID504735, AID631]
Type: protein assay
The source made the active and inactive calls.

Guide cases for EC50, answers given:
compound	EC50
Cc1cc2nc(-c3ccc(SCC(=O)Nc4ccc(S(=O)(=O)N5CCCC5)cc4)nc3)[nH]c2cc1C	11.6 µM (inactive)
CCn1c(=O)cc(SCC(=O)NCc2ccccn2)c2ccccc21	> 79.4 µM (inactive)
COC(=O)c1ccc(CSc2ncnc3c2oc2ccccc23)o1	29.1 µM (inactive)
O=C(O)c1cc(-c2ccc(Cl)s2)nc2ccccc12	42.7 µM (inactive)

Attention now shifts to the item below.
Note to self: EC50 recorded for CNC(=S)N1N=C(c2ccc(Br)cc2)CC1c1ccc(OC)cc1 (stereo not given) was 14.5 µM (inactive)
